Every entry's value here was drawn from patent US11760722B2.

Let's look at some compounds and their measured pEC50.
# Tested on: SARS-CoV-2 replicon
# method-summary: microbe, parasite or virus in culture
# Type: cell-based
# study-conditions: read-out: Replicon EC50
A value of pEC50 is the negative decimal logarithm of a concentration given in moles per litre.

Worked set:
INSERT INTO assay_data (compound, numeric_readout) VALUES
  ('CC(C#N)C(=O)N[C@H](C(=O)N1C[C@H]2[C@@H]([C@H]1C(=O)N[C@H](C#N)C[C@@H]1CCNC1=O)C2(C)C)C(C)(C)C (some centres unmarked) [Compound 88]', 6.60),
  ('Cc1c(C)c(C)c(S(=O)(=O)N[C@H](C(=O)N2C[C@H]3[C@@H]([C@H]2C(=O)N[C@H](C#N)C[C@@H]2CCNC2=O)C3(C)C)C(C)(C)C)c(C)c1C [Compound 142]', 6.77),
  ('C/C(=C\C(=O)N[C@H](C(=O)N1C[C@H]2[C@@H]([C@H]1C(=O)N[C@H](C#N)C[C@@H]1CCNC1=O)C2(C)C)C(C)(C)C)C(F)(F)F [Compound 140]', 6.39),
  ('CC(C)(C)[C@H](NC(=O)C12CC(C1)C2)C(=O)N1C[C@H]2[C@@H]([C@H]1C(=O)N[C@H](C#N)C[C@@H]1CCNC1=O)C2(C)C [Compound 20]', 6.63);

Please look at the following compound next.
Quick note, pEC50 for CC(C)(C)[C@H](NS(=O)(=O)c1ccns1)C(=O)N1C[C@H]2[C@@H]([C@H]1C(=O)N[C@H](C#N)C[C@@H]1CCNC1=O)C2(C)C [Compound 122] landed at 7.21
